Reference for the values: a collection of fitness landscapes (doi:10.1016/j.celrep.2020.107928)

B1: Caulobacter ParB omega fusion; a variant is named by its letters at X, in order, B8GW30 (parent)
chain: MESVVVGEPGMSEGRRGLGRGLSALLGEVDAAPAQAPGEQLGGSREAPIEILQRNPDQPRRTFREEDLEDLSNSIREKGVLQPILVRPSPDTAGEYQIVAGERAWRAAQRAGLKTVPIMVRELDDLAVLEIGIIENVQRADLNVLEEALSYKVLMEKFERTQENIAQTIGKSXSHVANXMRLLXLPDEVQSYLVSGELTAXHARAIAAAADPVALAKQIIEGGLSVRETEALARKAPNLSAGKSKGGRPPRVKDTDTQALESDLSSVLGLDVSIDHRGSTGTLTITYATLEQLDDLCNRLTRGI

Variants of: B1
run.description: one-hybrid fitness for binding NBS DNA (the Noc-binding site; scaled: cognate 1, non-cognate 0); higher = stronger binding
experimental.context: with NBS DNA site
The full ranking holds about 81,000 sequences; the median of “one-hybrid fitness for binding NBS DNA” is about -0.1, and the highest 2% start at about 0.36. This excerpt belongs to a sample that is enriched for the highest values.
property.measured: one-hybrid fitness for binding NBS DNA

[
  {
    "mutation.code": "QMSP",
    "one-hybrid fitness for binding NBS DNA": "≤ 0.2"
  },
  {
    "mutation.code": "QTSN",
    "one-hybrid fitness for binding NBS DNA": 0.221
  }
]

Q: Looking for the measured one-hybrid fitness for binding NBS DNA of QMGL , can you help?
Ans: ≤ 0.2

Q: Looking for the measured one-hybrid fitness for binding NBS DNA of QNKK , can you help?
Ans: ≤ 0.2

Q: Looking for the measured one-hybrid fitness for binding NBS DNA of QMQF , can you help?
Ans: ≤ 0.2

Q: Looking for the measured one-hybrid fitness for binding NBS DNA of QPSS , can you help?
Ans: ≤ 0.2

Q: Looking for the measured one-hybrid fitness for binding NBS DNA of QTSP , can you help?
Ans: ≤ 0.2

Q: Looking for the measured one-hybrid fitness for binding NBS DNA of QHSP , can you help?
Ans: ≤ 0.2

Q: Looking for the measured one-hybrid fitness for binding NBS DNA of GTLP , can you help?
Ans: ≤ 0.2

Q: Looking for the measured one-hybrid fitness for binding NBS DNA of QMSS , can you help?
Ans: 0.376

Q: Looking for the measured one-hybrid fitness for binding NBS DNA of QMSH , can you help?
Ans: ≤ 0.2
